# system-name: Inhibitor of nuclear factor kappa-B kinase subunit epsilon (Homo sapiens)
# condition: at 1 µM
measure: inhibition (%)

[
  {
    "mol-smiles": "[O-][S+]1CCN(Cc2ccc(-c3ccc4ncnc(Nc5ccc(OCc6ccccc6)c(F)c5)c4c3)o2)CC1",
    "unit-abbrev": "%",
    "recorded-number": 1
  },
  {
    "mol-smiles": "CCOc1ccc2c(-c3ccnc(Nc4cccc(C(F)(F)F)c4)n3)cnn2n1",
    "unit-abbrev": "%",
    "recorded-number": 45
  },
  {
    "mol-smiles": "CN(C)C(=O)O[C@@H]1CN[C@@H](C#Cc2cc3ncnc(Nc4ccc(OCc5cccc(F)c5)c(Cl)c4)c3s2)C1",
    "unit-abbrev": "%",
    "recorded-number": -1
  },
  {
    "mol-smiles": "O=C1NC(=O)C(N2CCc3ccccc32)=C1c1ccc(Cl)cc1",
    "unit-abbrev": "%",
    "recorded-number": 1
  },
  {
    "mol-smiles": "NCc1ccc(-n2c(-c3nonc3N)nc3cnccc32)cc1",
    "unit-abbrev": "%",
    "recorded-number": 2
  }
]

(P) CN1CCC(C(=O)Nc2n[nH]c3nnc(-c4ccccc4)cc23)CC1
(Q) CS(=O)(=O)CCNCc1ccc(-c2ccc3ncnc(Nc4ccc(OCc5ccccc5)cc4)c3c2)o1
(R) COc1cc(Nc2nccc(-c3cnn4ncccc34)n2)cc(OC)c1
(S) NS(=O)(=O)c1ccc(N/N=C2\C(=O)Nc3ccc4ncccc4c32)cc1
(T) Cc1nnc(-c2ccc(C)c(-c3ccc(C(=O)NCc4ccc(Cl)cc4)cc3)c2)o1
Request: Ascending sort, inhibition. Lab note: record answer as labels in requested order.
Result: P, Q, T, R, S
(P: -3%, Q: -1%, T: 2%, R: 38%, S: 55%)

* * *

# system-name: Inhibitor of nuclear factor kappa-B kinase subunit alpha (Homo sapiens) (UniProt O15111)
# Sequence (O15111 whole entry): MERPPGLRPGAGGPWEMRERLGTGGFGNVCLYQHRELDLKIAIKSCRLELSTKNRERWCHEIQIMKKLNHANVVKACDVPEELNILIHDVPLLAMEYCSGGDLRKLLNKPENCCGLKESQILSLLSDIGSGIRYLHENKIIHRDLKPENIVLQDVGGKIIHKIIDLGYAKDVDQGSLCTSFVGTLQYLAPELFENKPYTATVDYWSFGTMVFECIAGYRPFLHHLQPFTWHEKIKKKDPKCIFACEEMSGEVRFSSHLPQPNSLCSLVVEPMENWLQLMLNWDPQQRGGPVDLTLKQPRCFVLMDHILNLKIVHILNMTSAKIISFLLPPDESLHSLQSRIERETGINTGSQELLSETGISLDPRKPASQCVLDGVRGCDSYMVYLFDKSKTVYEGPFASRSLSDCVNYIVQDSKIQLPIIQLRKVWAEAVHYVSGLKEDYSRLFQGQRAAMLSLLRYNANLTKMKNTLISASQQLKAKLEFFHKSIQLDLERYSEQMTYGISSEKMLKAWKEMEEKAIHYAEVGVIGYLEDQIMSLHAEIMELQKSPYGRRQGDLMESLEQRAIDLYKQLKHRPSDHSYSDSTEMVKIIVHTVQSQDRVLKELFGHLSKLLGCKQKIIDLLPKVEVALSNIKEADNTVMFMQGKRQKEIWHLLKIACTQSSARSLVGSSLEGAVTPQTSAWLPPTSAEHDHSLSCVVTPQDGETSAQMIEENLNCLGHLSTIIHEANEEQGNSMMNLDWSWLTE
# condition: at 1 µM
measure: inhibition (%)

The examples below pair each entry with its known result.
[
  {
    "compound": "O=C(O[C@H]1CN[C@H](C#Cc2cc3ncnc(Nc4ccc(Cc5ccccc5)cc4)c3s2)C1)N1CCOCC1",
    "system-name": "Inhibitor of nuclear factor kappa-B kinase subunit alpha (Homo sapiens) (UniProt O15111)",
    "unit-abbrev": "%",
    "inhibition": -7
  },
  {
    "compound": "CCc1nn2ncccc2c1-c1ccnc(NC2CC2)n1",
    "system-name": "Inhibitor of nuclear factor kappa-B kinase subunit alpha (Homo sapiens) (UniProt O15111)",
    "unit-abbrev": "%",
    "inhibition": 0
  },
  {
    "compound": "O=C1NC(=O)C(c2ccc(Cl)cc2)=C1Nc1ccc(Cl)c(C(=O)O)c1",
    "system-name": "Inhibitor of nuclear factor kappa-B kinase subunit alpha (Homo sapiens) (UniProt O15111)",
    "unit-abbrev": "%",
    "inhibition": 3
  },
  {
    "compound": "COC(=O)Nc1nc2ccc(Sc3ccc(NC(=O)Nc4cc(C(F)(F)F)ccc4F)cc3)cc2[nH]1",
    "system-name": "Inhibitor of nuclear factor kappa-B kinase subunit alpha (Homo sapiens) (UniProt O15111)",
    "unit-abbrev": "%",
    "inhibition": 3
  },
  {
    "compound": "Nc1ncc(-c2cccc(S(N)(=O)=O)c2)c2scc(-c3ccc(F)c(Cl)c3)c12",
    "system-name": "Inhibitor of nuclear factor kappa-B kinase subunit alpha (Homo sapiens) (UniProt O15111)",
    "unit-abbrev": "%",
    "inhibition": -2
  },
  {
    "compound": "CC1=C(C(=O)Nc2ccc3[nH]ncc3c2)C(c2ccc(F)cc2)N=C(c2ccc(C(F)(F)F)nc2)N1 (stereo not given)",
    "system-name": "Inhibitor of nuclear factor kappa-B kinase subunit alpha (Homo sapiens) (UniProt O15111)",
    "unit-abbrev": "%",
    "inhibition": -4
  },
  {
    "compound": "CCN(CC)S(=O)(=O)c1ccc(OC)c(Nc2ncc(-c3ccccc3)o2)c1",
    "system-name": "Inhibitor of nuclear factor kappa-B kinase subunit alpha (Homo sapiens) (UniProt O15111)",
    "unit-abbrev": "%",
    "inhibition": 1
  },
  {
    "compound": "CS(=O)(=O)CCN(CC#N)Cc1ccc(-c2ccc3ncnc(Nc4ccc(OCc5cccc(F)c5)c(Cl)c4)c3c2)o1",
    "system-name": "Inhibitor of nuclear factor kappa-B kinase subunit alpha (Homo sapiens) (UniProt O15111)",
    "unit-abbrev": "%",
    "inhibition": 1
  }
]

(a) CN1CCC(C(=O)Nc2n[nH]c3nnc(-c4ccccc4)cc23)CC1
(b) CCn1c(-c2nonc2N)nc2c(C#CCN)ncc(OCCCN)c21
(c) Clc1ccc(-c2nn3ncccc3c2-c2ccnc(Nc3ccccc3)n2)cc1
(d) NS(=O)(=O)c1cccc(-c2cc3ccncc3cc2OCc2ccccc2)c1
Request: Order the 4 compounds from highest to lowest inhibition. Lab note: record answer as labels in requested order.
Result: c, b, a, d

(a) NS(=O)(=O)c1ccc(N/N=C2\C(=O)Nc3ccc(-c4cnco4)cc32)cc1
(b) O=C(Nc1n[nH]c2nc(-c3ccco3)c(Br)cc12)C1CC1
(c) COc1ccc(-c2cc(-c3c[nH]nc3-c3ccccn3)ccn2)cc1
Request: Put the compounds in ascending order of inhibition. Returns: the labels arranged in the requested order.
Result: a, c, b
(a: -3%, c: 6%, b: 85%)

(P) COc1ccc(-c2nn3ncccc3c2-c2ccnc(Nc3cccc(C(F)(F)F)c3)n2)cc1
(Q) COc1cccc(-n2ncc3c(N/N=C/c4ccc(C)cc4)ncnc32)c1
(R) NC(=O)c1ccc2c(-c3ccnc(NCCCO)n3)c(-c3ccc(F)cc3)nn2c1
(S) CN(C)CCOc1ccc(-c2cc(-c3ccc4c(c3)CCC4=NO)c(-c3ccncc3)o2)cc1
Request: // ascending sort on recorded inhibition Write the labels out in the order the request specifies.
Result: S, R, P, Q
(S: 0%, R: 1%, P: 2%, Q: 13%)
